Catalogue of fold induction at 0.625 µM readings, one per entry.
System: primary human NK cells
Experiment: NK cell activation assessed by cytokine secretion (coculture with K562 NucRed target cells)
Format: cell-based
Details: K562, NK cells cocultured with K562 NucRed, 1:1 E/T, 0.625 μM compound, read-out: TNFα secretion, fold change over baseline

The examples below pair each entry with its known result.
> print(dat)
                      smiles.representation          assayed.system  readout.value
1  Cn1cnnc1CC1(c2cccc(N3Cc4c(cc(CN5CCC6(CC6)C5)cc4C(F)(F)F)C3=O)c2)COC1  primary human NK cells      2.01 to 5
2  Cc1n[nH]c(C)c1-c1cc2c(c(C(F)(F)F)c1)CN(c1cccc(C3(Cc4nncn4C)COC3)c1)C2=O  primary human NK cells            < 1
3  Cc1cc2c(c(C3CC3)n1)CN(c1cccc([C@H](C)Cc3nncn3C)c1)C2=O  primary human NK cells            < 1
4  C[C@H](Cc1nncn1C)c1cccc(NC(=O)c2n[nH]c3c2CCC3)c1  primary human NK cells      1.01 to 2
5  Cc1cc(C(=O)Nc2cccc([C@@H](C)Cc3nncn3C)c2)nc(C2CC2)n1  primary human NK cells            < 1

Now look at this one.
Record summary for `Cn1cnnc1[C@@H]1C[C@@H]1c1cccc(N2Cc3c(cccc3C(F)(F)F)C2=O)c1` : reported fold induction at 0.625 µM = 1.01 to 2

====

System: T-cell
Assay: IL-2 secretion from T-cells stimulated with anti-CD3 antibody alone (Biological Example 2)
Type: cell-based, human
Details: Homo sapiens, T-cell; 1 μM Cbl-b inhibitor; fold change over baseline (anti-CD3/anti-CD28 stimulated T-cells without inhibitor); read-out: IL-2 secretion Anti-CD3 stimulation
Listed next: entries and their corresponding fold induction at 1 µM.

// below: answered compounds
> print(dat)
                                   compound  readout.value
1  Cn1cnnc1CC1(c2cccc(N3Cc4c(cc(CN5Cc6ccccc6C5)cc4C(F)(F)F)C3=O)c2)COC1 [Example 654]        > 0.201
2  CC(c1cc(C(=O)Nc2cccc(C3(Cc4nncn4C)COC3)c2)nc(C2CC2)n1)N1CCC2(CC2)C1 (stereo in doubt) [Example 592a]        > 0.201
3  Cn1cnnc1[C@H](F)C1(c2cccc(N3Cc4c(cc(CN5C6CCCC5CC6)cc4C(F)(F)F)C3=O)c2)COC1 [Example 675b]        > 0.201

Lookup result for CN1C2CCC1CN(c1cc3c(c(C(F)(F)F)c1)CN(c1cccc([C@@](C)(F)C(F)(F)c4nncn4C)c1)C3=O)C2 [Example 564] ; measured fold induction at 1 µM: 0.101 to 0.15

Lab note: Cn1cnnc1CC1(c2cccc(N3Cc4c(cc(C5CN6CCC5CC6)cc4C(F)(F)F)C3=O)c2)COC1 (centres unmarked) [Example 560] gave fold induction at 1 µM of < 0.05

Entry Cn1cnnc1[C@@H](F)C1(c2cccc(N3Cc4c(cc(CN5CCCCC5)cc4C(F)(F)F)C3=O)c2)COC1 [Example 674a] — recorded fold induction at 1 µM = 0.101 to 0.15

Memo: COC1CCCN(Cc2cc3c(c(C(F)(F)F)c2)CN(c2cccc(C4(Cc5nncn5C)COC4)c2)C3=O)C1 (centres unmarked) [Example 637] , reported fold induction at 1 µM: > 0.201

Sure, the documented fold induction at 1 µM for Cn1cnnc1CC1(c2cccc(N3Cc4c(cc(C(N5CCCC5)C(F)(F)F)cc4C(F)(F)F)C3=O)c2)COC1 (centres unmarked) [Example 581] is 0.051 to 0.1

Lookup result for Cn1cnnc1[C@@H](F)C1(c2cccc(N3Cc4c(cc(CN5CCCC5)cc4C(F)(F)F)C3=O)c2)COC1 [Example 673a] ; measured fold induction at 1 µM: > 0.201

Lab note: C[C@H](Cc1nncn1C)c1cc(N2Cc3c(cccc3C(F)(F)F)C2=O)nc(C2(C)CC2)c1 [Example 681] gave fold induction at 1 µM of 0.051 to 0.1

Reported fold induction at 1 µM of Cn1cnnc1CC1(c2cccc(N3Cc4c(cc(C5CC5)nc4C4CC4)C3=O)c2)COC1 [Example 568] : 0.101 to 0.15
